- Method Summary: Cell Viability - LYMP2-012 (AID 982);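 note: cellular ATP by luciferase luminescence where a drop means cytotoxicity; cells exposed to compound for one day before reading; nearly all actives have a fitted effect of over 55% in size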
- Run Parameters: LYMP2-012 lymphoblastoid cell viability qHTS; series mostly up to 92.2 µM
Inconclusive results are not listed. The source made the active and inactive calls. Calls come from the whole dose curve; as a rule, active = well fitted cell-killing curve with a large enough effect; inconclusive = small, poorly fitted or top-dose-only effect; inactive = flat fitted curve, though single readings scatter.
Labels: active, inactive

compound=C[C@]12CC[C@H]3[C@@H](CCC4=CC(=O)CC[C@@]43C)[C@@H]1CC[C@@H]2O class_label=inactive
compound=CNC(=O)O/N=C/C(C)(C)SC class_label=inactive
compound=O=C(Cl)C(Cl)(Cl)Cl class_label=inactive
compound=O=C=NC1CCCCC1 class_label=inactive
compound=ClC(Cl)(Cl)c1ccccc1 class_label=inactive
compound=Cc1cccc([N+](=O)[O-])c1 class_label=inactive
compound=O=C1C(Cl)=C(Cl)C(=O)C(Cl)=C1Cl class_label=active
compound=C[N+](C)(C)Cc1ccccc1 class_label=inactive
compound=CCOc1ccc(N)cc1 class_label=inactive
compound="COC1=CC(=O)OC(CCc2ccccc2)C1 (configuration not stated)" class_label=inactive
compound="ClC1=C(Cl)C2(Cl)C3C4CC(C5OC45)C3C1(Cl)C2(Cl)Cl (configuration not stated)" class_label=active
compound=O=C(O)COc1ccc(Cl)cc1Cl class_label=inactive
compound=CCOP(=S)(OCC)SCSC(C)(C)C class_label=inactive
compound=C[C@H]1CCCC(=O)CCC/C=C/c2cc(O)cc(O)c2C(=O)O1 class_label=inactive
compound=CC(C)(c1ccccc1)c1ccc(O)cc1 class_label=inactive
compound=C=CC(=C)C class_label=inactive
compound=Cc1ccc2ccccc2c1 class_label=inactive

====

- Method Summary: Cell Viability - MRC5 (AID 434);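 note: potency is the fitted concentration of half-maximal effect; cells exposed to compound for 40 hours at 37 °C; potency reflects cytotoxicity seen as loss of intracellular ATP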
- Run Parameters: MRC5 lung fibroblast viability, qHTS
Results filed as inconclusive are left out. Activity calls are given as the source filed them. Calls follow the shape of the full dose curve.
Observed Property: Potency

molecule=CCNc1nc(Cl)nc(NC(C)C)n1 result="> 92 µM (inactive)"
molecule=C=CCOC(=O)c1ccccc1N result="> 92 µM (inactive)"
molecule=CN=C=S result="> 92 µM (inactive)"
molecule=CCCOC(=O)c1ccccc1C(=O)OCCC result="> 92 µM (inactive)"
molecule=CC(C)(C)OOC(C)(C)C result="> 92 µM (inactive)"
molecule=CCCCOC(=O)c1ccccc1C(=O)OCCCC result="> 92 µM (inactive)"
molecule=Cc1ccccc1N result="> 92 µM (inactive)"
molecule=CNC(=O)O/N=C/C(C)(C)SC result="> 92 µM (inactive)"
molecule=C/C=C/c1ccc2c(c1)OCO2 result="> 92 µM (inactive)"
molecule=S=C=Nc1cccc2ccccc12 result="> 92 µM (inactive)"
molecule="OCC1CO1 (configuration not stated)" result="> 92 µM (inactive)"
molecule="C1CCC2CCCCC2C1 (configuration not stated)" result="> 92 µM (inactive)"
molecule=C=CCOC(C)=O result="> 92 µM (inactive)"
molecule=c1ccc(N=Nc2ccccc2)cc1 result="> 92 µM (inactive)"
molecule=Clc1cccc(C(Cl)(Cl)Cl)n1 result="> 92 µM (inactive)"
molecule="OCC(Br)CBr (configuration not stated)" result="> 92 µM (inactive)"
molecule=c1ccc2c(c1)CCCC2 result="> 92 µM (inactive)"

====

- Measured Target: Alpha-galactosidase A (Homo sapiens) (UniProt P06280)
- Sequence (P06280 whole entry, looked up): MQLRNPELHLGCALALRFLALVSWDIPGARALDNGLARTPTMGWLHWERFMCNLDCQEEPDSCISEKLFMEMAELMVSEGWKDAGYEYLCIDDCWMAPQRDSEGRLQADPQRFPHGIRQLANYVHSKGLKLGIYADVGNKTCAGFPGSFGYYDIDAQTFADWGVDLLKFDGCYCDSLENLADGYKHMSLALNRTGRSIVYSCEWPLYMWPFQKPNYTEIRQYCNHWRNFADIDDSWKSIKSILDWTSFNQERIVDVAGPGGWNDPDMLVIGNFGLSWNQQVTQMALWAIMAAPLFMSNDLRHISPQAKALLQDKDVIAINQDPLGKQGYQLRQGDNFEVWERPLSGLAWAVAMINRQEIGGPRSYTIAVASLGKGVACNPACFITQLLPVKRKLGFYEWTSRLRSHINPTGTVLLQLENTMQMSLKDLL
- Method Summary: Counterscreen for Glucocerebrosidase Inhibitors: qHTS Assay for Human alpha-Galactosidase at pH 4.5 (AID 992)
- Run Parameters: purified enzyme, fluorogenic substrate; series mostly up to 76.9 µM
Active and inactive are the calls of the source. The call rests on the fitted dose curve; in most records, active means well fitted curve in the direction sought with a large enough effect; inactive means no such curve, though single readings can be large or run the other way.
Observed Property: outcome

compound=CCCCCCC(C)(C)c1ccc([C@@H]2C[C@H](O)CC[C@@H]2CCCO)c(O)c1 observed_property=outcome result=inactive
compound=NCC#Cc1ccccc1 observed_property=outcome result=inactive
compound="CS(=N)(=O)CC[C@@H](N)C(=O)O (some centres not stated)" observed_property=outcome result=inactive
compound=C[C@H](NC(C)(C)C)C(=O)c1cccc(Cl)c1 observed_property=outcome result=inactive
compound=CN1CC[C@]2(C)c3cc(O)ccc3N(C)[C@@H]12 observed_property=outcome result=inactive
compound=C#CCN(C)[C@@H](C)Cc1ccccc1 observed_property=outcome result=inactive
compound=COc1cc(C=C(C#N)C#N)cc(O)c1O observed_property=outcome result=inactive
compound="CCCCN1C2CCC1CC(OC(c1ccc(F)cc1)c1ccc(F)cc1)C2 (configuration not stated)" observed_property=outcome result=inactive
compound=CC(C)N(CC[C@@](C(N)=O)(c1ccccc1)c1ccccn1)C(C)C observed_property=outcome result=inactive
compound=C[C@H]1OC[C@@H](C[N+](C)(C)C)O1 observed_property=outcome result=inactive
compound=COc1ccc2c(c1OC)C(=O)O[C@H]2[C@H]1c2cc3c(cc2CCN1C)OCO3 observed_property=outcome result=inactive
compound=CC[C@@]1(c2ccc(N)cc2)CCC(=O)NC1=O observed_property=outcome result=inactive
